Target: human B7-H3 expressed on A375 tumor cells (human) (UniProt Q5ZPR3)
Assay: flow cytometry on A375 cells, MFI(PE); unit from the axis Conc (nM)
Measured EC50 accompanies every entry in the list below.
Measured Parameter: EC50 (nM)

INSERT INTO measurements (binder, observed_measurement) VALUES
  ('72D1D11-z9 (antibody, V domains shown) VH: QVQLVQSGSELKKPGASVKVSCKASGYTFTNLGLNWVRQAPGQGLKWMGWINTAGGQPTYAEDFKGRCVFSLDTSVSTAYLQISSLKAEDTAVYFCARDDGYYYTMDYWGQGTTVTVSS VL: DIVMTQTPLSLPVTPGEPASISCRSSQSLVHSNGKTYLHWYLQKPGQSPQLLIYKVSNRFSGVPDRFSGSGSGTDFTLKISRVEAEDVGVYYCSQSTHVPWTFGGGTKLEIK', 0.51),
  ('72D1D11-z12 (antibody, V domains shown) VH: QVQLVQSGSELKKPGASVKVSCKASGYTFTNLGLNWVRQAPGQGLKWMGWINTAGGQPTYAEDFKGRCVFSLDTSVSTAYLQISSLKAEDTAVYFCARDDGYYYTMDYWGQGTTVTVSS VL: DIVMTQSPLSLPVTPGEPASISCRSSQSLVHSNGKTYLHWYLQKPGQSPQLLIYKVSNRFSGVPDRFSGSGSGTDFTLKISRVEAEDVGVYFCSQSTHVPWTFGGGTKLEIK', 0.35),
  ('72D1D11-z11 (antibody, V domains shown) VH: QVQLVQSGSELKKPGASVKVSCKASGYTFTNLGLNWVRQAPGQGLKWMGWINTAGGQPTYAEDFKGRCVFSLDTSVSTAYLQISSLKAEDTAVYFCARDDGYYYTMDYWGQGTTVTVSS VL: DIVMTQSPLSLPVTPGEPASISCRSSQSLVHSNGKTYLHWYLQKPGQSPQLLIYKVSNRFSGVPDRFSGSGSGTDFTLKISRVEAEDVGVYYCSQSTHVPWTFGGGTKLEIK', 0.36),
  ('72D1D11-z13 (antibody, V domains shown) VH: QIQLVQSGSELKKPGASVKVSCKASGYTFTNLGLNWVKQAPGQGLKWMGWINTAGGQPTYAEDFKGRCVFSLDTSVSTAYLQISSLKAEDTAVYFCARDDGYYYTMDYWGQGTTVTVSS VL: DIVMTQTPLSLPVTPGEPASISCRSSQSLVHSNGKTYLHWYLQKPGQSPQLLIYKVSNRFSGVPDRFSGSGSGTDFTLKISRVEAEDVGVYYCSQSTHVPWTFGGGTKLEIK', 0.36),
  ('72D1D11-z15 (antibody, V domains shown) VH: QIQLVQSGSELKKPGASVKVSCKASGYTFTNLGLNWVKQAPGQGLKWMGWINTAGGQPTYAEDFKGRCVFSLDTSVSTAYLQISSLKAEDTAVYFCARDDGYYYTMDYWGQGTTVTVSS VL: DIVMTQSPLSLPVTPGEPASISCRSSQSLVHSNGKTYLHWYLQKPGQSPQLLIYKVSNRFSGVPDRFSGSGSGTDFTLKISRVEAEDVGVYYCSQSTHVPWTFGGGTKLEIK', 0.47),
  ('MGA017 (antibody, from a related filing, V domains shown) VH: EVQLVESGGGLVKPGGSLRLSCAASGFTFSSYGMSWVRQAPGKGLEWVATINSGGSNTYYPDSLKGRFTISRDNAKNSLYLQMNSLRAEDTAVYYCARHDGGAMDYWGQGTTVTVSS VL: DIQMTQSPSSLSASVGDRVTITCRASESIYSYLAWYQQKPGKAPKLLVYNTKTLPEGVPSRFSGSGSGTDFTLTISSLQPEDFATYYCQHHYGTPPWTFGQGTRLEIK', 0.19),
  ('72D1D11-z14 (antibody, V domains shown) VH: QIQLVQSGSELKKPGASVKVSCKASGYTFTNLGLNWVKQAPGQGLKWMGWINTAGGQPTYAEDFKGRCVFSLDTSVSTAYLQISSLKAEDTAVYFCARDDGYYYTMDYWGQGTTVTVSS VL: DIVMTQTPLSLPVTPGEPASISCRSSQSLVHSNGKTYLHWYLQKPGQSPQLLIYKVSNRFSGVPDRFSGSGSGTDFTLKISRVEAEDVGVYFCSQSTHVPWTFGGGTKLEIK', 0.57),
  ('72D1D11-z16 (antibody, V domains shown) VH: QIQLVQSGSELKKPGASVKVSCKASGYTFTNLGLNWVKQAPGQGLKWMGWINTAGGQPTYAEDFKGRCVFSLDTSVSTAYLQISSLKAEDTAVYFCARDDGYYYTMDYWGQGTTVTVSS VL: DIVMTQSPLSLPVTPGEPASISCRSSQSLVHSNGKTYLHWYLQKPGQSPQLLIYKVSNRFSGVPDRFSGSGSGTDFTLKISRVEAEDVGVYFCSQSTHVPWTFGGGTKLEIK', 0.32);
